Each entry below carries its reported diameter of the inhibition zone (DIZ).
Test system: Pseudomonas aeruginosa
Experiment: Antibacterial activity against Pseudomonas aeruginosa ATCC 27853 assessed as growth inhibition at 1.56 to 25 ug/mL
Assay type: functional
Field format: number, assumed mm, no unit text.

- COc1ccc(C2=NN(c3nc(-c4ccc([N+](=O)[O-])cc4)cs3)C(c3ccc(-c4cc(Cl)c(Cl)cc4Cl)o3)C2)cc1OC (stereo not given): 16
- COc1ccc(-c2ccc(C3CC(c4ccc(OC)c(OC)c4)=NN3c3nc(-c4ccc([N+](=O)[O-])cc4)cs3)o2)c([N+](=O)[O-])c1 (stereo not given): 11
- O=[N+]([O-])c1ccc(-c2csc(N3N=C(c4ccccc4)CC3c3ccc(-c4ccc(Cl)cc4)o3)n2)cc1 (stereo not given): 11
- COc1ccc(C2=NN(c3nc(-c4ccc([N+](=O)[O-])cc4)cs3)C(c3ccc(-c4ccc(Br)cc4)o3)C2)cc1OC (stereo not given): 11
- COc1ccc(C2=NN(c3nc(-c4ccc([N+](=O)[O-])cc4)cs3)C(c3ccc(-c4ccc(Cl)cc4Cl)o3)C2)cc1OC (stereo not given): 16

Could you now look at the following compound, please?
So for COc1ccc(C2=NN(c3nc(-c4ccc([N+](=O)[O-])cc4)cs3)C(c3ccc(-c4ccc(Cl)cc4[N+](=O)[O-])o3)C2)cc1OC (stereo not given) , the logged diameter of the inhibition zone (DIZ) turned out to be 11
